Reference source: patent US11180504B2

- System: carbapenemase producing K. pneumoniae
- protocolNotes: MIC by broth micro-dilution (CLSI), carbapenemase producing K. pneumoniae
- Type: cell-based, Klebsiella pneumoniae
- assayConditions: Klebsiella pneumoniae, ATCCBAA1705, KPC-2 K. pneumoniae ATCC BAA-1705; read-out: MIC
# MIC annotations

| structureNotation | MIC [µg/mL] |
| --- | --- |
| C[C@@H](NC(=O)CN)[C@H]1C(=O)N2C(C(=O)O)=C(S[C@@H]3CN[C@H](C(=O)N4CC[C@@H](N)C4)C3)[C@H](C)[C@H]12 | 4 |
| C[C@@H](NC(=O)Cn1cnnn1)[C@H]1C(=O)N2C(C(=O)O)=C(S[C@@H]3CN[C@H](C(=O)N4CCN(CCCN)CC4)C3)[C@H](C)[C@H]12 | 1 |

###

# Lookup of reported MIC keyed by entry
- System: carbapenem sensitive Escherichia coli
- protocolNotes: MIC by broth micro-dilution (CLSI), carbapenem sensitive E. coli
- Format: cell-based
- assayConditions: ESBL −ve E. coli ATCC25922

| molecule | MIC, µg/mL |
| --- | --- |
| C[C@@H](NC(=O)Cn1cnnn1)[C@H]1C(=O)N2C(C(=O)O)=C(S[C@@H]3CN[C@H](C(=O)N4CCC5CNCC5(CO)C4)C3)[C@H](C)[C@H]12 (single isomer, unassigned) | 0.25 |
| C[C@@H](NC(=O)Cn1cnnn1)[C@H]1C(=O)N2C(C(=O)O)=C(S[C@@H]3CN[C@H](C(=O)N4CC5CCN(C(=N)N)C5C4)C3)[C@H](C)[C@H]12 (single isomer, unassigned) | 0.125 |
| C[C@@H](NC(=O)Cn1cnnn1)[C@H]1C(=O)N2C(C(=O)O)=C(S[C@@H]3CN[C@H](C(=O)N4CCC(C(=O)NCC(O)CN)CC4)C3)[C@H](C)[C@H]12 (single isomer, unassigned) | 0.125 |
| C[C@@H](NC(=O)C(N)C(F)(F)F)[C@H]1C(=O)N2C(C(=O)O)=C(S[C@@H]3CN[C@H](C(=O)N(C)C)C3)[C@H](C)[C@H]12 (stereo partly shown) | 1 |
| C[C@@H](NC(=O)Cn1cnnn1)[C@H]1C(=O)N2C(C(=O)O)=C(S[C@@H]3CN[C@H](C(=O)N4CC[C@@H](N)[C@H]4CO)C3)[C@H](C)[C@H]12 | 0.125 |
| C[C@@H](NC(=O)Cn1cnnn1)[C@H]1C(=O)N2C(C(=O)O)=C(S[C@@H]3CN[C@H](C(=O)N4CCC5(CCNC5)C4)C3)[C@H](C)[C@H]12 (single isomer, unassigned) | 0.125 |
| C[C@@H](NC(=O)Cn1cnnn1)[C@H]1C(=O)N2C(C(=O)O)=C(S[C@@H]3CN[C@H](C(=O)N4CCOC(CN)C4)C3)[C@H](C)[C@H]12 (stereo in doubt) | 0.5 |
| C[C@@H](NC(=O)Cn1cnnn1)[C@H]1C(=O)N2C(C(=O)O)=C(S[C@@H]3CN[C@H](C(=O)N4CC5CCNCC5C4)C3)[C@H](C)[C@H]12 (single isomer, unassigned) | 0.25 |
| C[C@@H](NC(=O)Cn1cnnn1)[C@H]1C(=O)N2C(C(=O)O)=C(S[C@@H]3CN[C@H](C(=O)N4CC(N)C(CO)C4)C3)[C@H](C)[C@H]12 (single isomer, unassigned) | 0.25 |
| C[C@@H](NC(=O)Cn1cnnn1)[C@H]1C(=O)N2C(C(=O)O)=C(S[C@@H]3CN[C@H](C(=O)N4CCC5CNCCC54)C3)[C@H](C)[C@H]12 (stereo partly shown) | 0.25 |
